Biological target: T1, human CD71 extracellular domain (human, UniProt P02786 89-760)
T1 construct: also called hCD71; CD71-ECD
T1 sequence (P02786 89-760): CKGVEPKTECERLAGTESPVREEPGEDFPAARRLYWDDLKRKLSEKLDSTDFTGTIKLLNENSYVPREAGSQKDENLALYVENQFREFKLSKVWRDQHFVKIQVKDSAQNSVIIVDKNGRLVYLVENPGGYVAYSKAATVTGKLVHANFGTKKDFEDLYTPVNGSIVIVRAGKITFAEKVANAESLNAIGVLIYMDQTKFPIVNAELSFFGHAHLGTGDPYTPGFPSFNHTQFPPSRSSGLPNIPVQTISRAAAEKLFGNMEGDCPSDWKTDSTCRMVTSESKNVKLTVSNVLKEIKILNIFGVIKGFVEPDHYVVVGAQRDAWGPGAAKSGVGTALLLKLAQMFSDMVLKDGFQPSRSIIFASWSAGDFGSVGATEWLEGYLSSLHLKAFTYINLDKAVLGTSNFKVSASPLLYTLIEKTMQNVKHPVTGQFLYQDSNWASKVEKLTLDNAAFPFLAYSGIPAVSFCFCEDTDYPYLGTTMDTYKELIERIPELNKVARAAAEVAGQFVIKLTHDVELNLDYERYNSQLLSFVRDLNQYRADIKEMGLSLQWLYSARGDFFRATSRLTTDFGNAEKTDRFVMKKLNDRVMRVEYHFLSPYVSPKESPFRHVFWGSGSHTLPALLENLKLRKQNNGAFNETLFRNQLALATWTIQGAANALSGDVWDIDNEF
Test: primary ELISA; signal over HSA control
PROPERTY: hCD71:HSA (ratio)

Per the record, CD71-binding FN3 domain SEQ ID NO 361 (designed binder) MLPAPKNLVVSRVTEDSARLSWTAPDAAFDSFFIGYLEPQPPGEAIQLFVPGSERSYDLTGLKPGTEYNVTIQGVKGGFPSIPLSALFTT has hCD71:HSA of 210

(A) CD71-binding FN3 domain SEQ ID NO 364 (designed binder) MLPAPNNLVVSRVTEDSARLSWTAPDAAFDSFFIGYLEPQPPGEAIHLFVPGSERSYDLTGLKPGTEYNVTIQGVKGGFPSGPLHATFTT
(B) CD71-binding FN3 domain SEQ ID NO 442 (designed binder) MLPAPKNLVVSRVTEDSARLSWTAPDAAFDSFEIWYAEWRQVGEAIVLTVPGSERSYDLTGLKPGTEYNVDIHGVKGGKVSWPLSAISTT
(C) CD71-binding FN3 domain SEQ ID NO 393 (designed binder) MLPAPKNLVVSRVTEDSARLSWTAPDAAFDSFFIGYLEPQPPGEAIGLFVPGSERSYDLTGLKPGTEYNVTIQGVKGGFPSLPLQAHFTT
Sort low-to-high on hCD71:HSA, please. Answer by naming the labels in the order asked.
C, A, B
